Where do the numbers come from? From ChEMBL document CHEMBL5543060.

ASSAY TARGET: Vascular endothelial growth factor receptor 2 (Homo sapiens)
Sequence (P35968 whole entry): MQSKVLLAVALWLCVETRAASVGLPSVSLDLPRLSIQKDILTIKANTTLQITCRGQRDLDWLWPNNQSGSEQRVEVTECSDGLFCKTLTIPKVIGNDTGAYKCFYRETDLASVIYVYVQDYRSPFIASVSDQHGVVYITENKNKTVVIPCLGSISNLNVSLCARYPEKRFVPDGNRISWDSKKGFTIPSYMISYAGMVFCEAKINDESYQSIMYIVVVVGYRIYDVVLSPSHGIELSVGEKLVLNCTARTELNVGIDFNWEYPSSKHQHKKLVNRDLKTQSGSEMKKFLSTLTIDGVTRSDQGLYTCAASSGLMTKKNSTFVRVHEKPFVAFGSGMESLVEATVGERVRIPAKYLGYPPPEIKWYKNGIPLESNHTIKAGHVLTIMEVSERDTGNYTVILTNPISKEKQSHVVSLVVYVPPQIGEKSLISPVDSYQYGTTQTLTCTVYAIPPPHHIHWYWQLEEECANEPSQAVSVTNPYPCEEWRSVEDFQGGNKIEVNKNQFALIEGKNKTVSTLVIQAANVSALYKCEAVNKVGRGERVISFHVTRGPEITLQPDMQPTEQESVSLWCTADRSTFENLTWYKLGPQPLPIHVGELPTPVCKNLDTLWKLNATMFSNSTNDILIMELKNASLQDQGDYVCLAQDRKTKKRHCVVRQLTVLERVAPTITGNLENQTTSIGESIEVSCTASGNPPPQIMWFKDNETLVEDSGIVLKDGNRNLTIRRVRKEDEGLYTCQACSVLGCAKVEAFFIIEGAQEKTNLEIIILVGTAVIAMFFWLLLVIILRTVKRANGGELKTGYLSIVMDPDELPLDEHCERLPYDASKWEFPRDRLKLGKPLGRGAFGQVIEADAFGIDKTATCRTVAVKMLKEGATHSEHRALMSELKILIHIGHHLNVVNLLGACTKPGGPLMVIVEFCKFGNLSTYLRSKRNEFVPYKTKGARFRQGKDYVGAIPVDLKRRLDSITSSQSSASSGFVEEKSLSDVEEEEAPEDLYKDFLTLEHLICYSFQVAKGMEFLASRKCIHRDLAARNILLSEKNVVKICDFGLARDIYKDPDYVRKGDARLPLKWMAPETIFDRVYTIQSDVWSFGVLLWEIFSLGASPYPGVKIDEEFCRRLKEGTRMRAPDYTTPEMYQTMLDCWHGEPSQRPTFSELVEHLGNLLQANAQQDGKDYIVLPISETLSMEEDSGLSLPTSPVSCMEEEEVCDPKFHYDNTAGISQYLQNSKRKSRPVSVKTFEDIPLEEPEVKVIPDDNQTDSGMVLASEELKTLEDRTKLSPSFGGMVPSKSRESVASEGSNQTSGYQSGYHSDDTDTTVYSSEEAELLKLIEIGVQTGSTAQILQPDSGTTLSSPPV
PROTOCOL NOTES: Inhibition of VEGFR2 (unknown origin) using poly (Glu,Tyr) 4:1 as substrate measured after 1 hr in presence of ATP by spectrophotometric analysis
MEASUREMENT LABEL: IC50 (nM)

>  <CHEM SMILES>
Cc1c2ccc(N(C)c3ccnc(Nc4ccc(NC(=O)CCCCCCC(=O)NO)cc4)n3)cc2nn1C

>  <RECORDED NUMBER>
16

$$$$

* * *

PROTOCOL NOTES: Metabolic stability in human Hepatocyte assessed as half life by LC-MS/MS analysis
Type: ADME, cell-based
DETAILS: hepatocytes
Reported half-life values for a set of compounds
MEASUREMENT LABEL: half-life

>  <CHEM SMILES>
CCCNNC(=O)c1ccc(Nc2nccc(N(C)c3ccc4c(C)n(C)nc4c3)n2)cc1

>  <RESULT>
< 15 min

$$$$
>  <CHEM SMILES>
Cc1c2ccc(N(C)c3ccnc(Nc4ccc(NC(=O)CCCCCCC(=O)NO)cc4)n3)cc2nn1C

>  <RESULT>
< 15 min

$$$$

* * *

ASSAY TARGET: Histone deacetylase 1 (Homo sapiens, UniProt Q13547)
Sequence (Q13547 whole entry): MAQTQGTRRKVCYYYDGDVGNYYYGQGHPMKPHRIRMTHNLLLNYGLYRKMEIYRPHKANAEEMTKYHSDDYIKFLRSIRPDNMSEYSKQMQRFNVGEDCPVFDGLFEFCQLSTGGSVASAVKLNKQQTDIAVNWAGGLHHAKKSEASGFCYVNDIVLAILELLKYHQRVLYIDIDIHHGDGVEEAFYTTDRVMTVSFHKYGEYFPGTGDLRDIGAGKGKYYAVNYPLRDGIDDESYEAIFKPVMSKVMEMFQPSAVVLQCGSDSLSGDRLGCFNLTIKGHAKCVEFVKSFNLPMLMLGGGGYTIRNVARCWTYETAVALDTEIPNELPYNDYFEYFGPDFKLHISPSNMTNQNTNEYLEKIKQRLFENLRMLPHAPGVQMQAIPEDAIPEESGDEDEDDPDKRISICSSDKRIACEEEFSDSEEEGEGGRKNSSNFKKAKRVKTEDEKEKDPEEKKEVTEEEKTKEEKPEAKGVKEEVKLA
PROTOCOL NOTES: Inhibition of human recombinant HDAC1 using fluorogenic substrate incubated for 30 mins by fluorescence based assay

>  <CHEM SMILES>
Cc1c2ccc(N(C)c3ccnc(Nc4ccc(NC(=O)CCCCCCC(=O)NO)cc4)n3)cc2nn1C

>  <ASSAY TARGET>
Histone deacetylase 1 (Homo sapiens, UniProt Q13547)

>  <IC50, nM>
120

$$$$

* * *

ASSAY TARGET: Histone deacetylase 3 (Homo sapiens, UniProt O15379)
Sequence (O15379 whole entry): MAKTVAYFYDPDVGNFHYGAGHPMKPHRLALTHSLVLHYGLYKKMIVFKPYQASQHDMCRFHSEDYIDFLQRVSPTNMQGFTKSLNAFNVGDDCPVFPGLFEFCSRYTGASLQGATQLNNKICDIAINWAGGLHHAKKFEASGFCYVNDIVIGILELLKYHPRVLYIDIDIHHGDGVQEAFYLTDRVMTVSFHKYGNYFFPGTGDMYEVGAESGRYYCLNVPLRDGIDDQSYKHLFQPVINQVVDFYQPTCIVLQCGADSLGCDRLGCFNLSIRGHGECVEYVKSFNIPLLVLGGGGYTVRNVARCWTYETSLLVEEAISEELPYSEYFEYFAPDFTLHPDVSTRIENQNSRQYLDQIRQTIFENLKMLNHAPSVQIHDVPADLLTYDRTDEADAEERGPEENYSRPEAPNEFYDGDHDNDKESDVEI
PROTOCOL NOTES: Inhibition of HDAC3 (unknown origin)
MEASUREMENT LABEL: IC50 (nM)

>  <CHEM SMILES>
Nc1ccccc1NC(=O)Cc1ccc2ncccc2c1

>  <MEASUREMENT LABEL>
IC50

>  <DISPLAY UNIT>
nM

>  <RECORDED NUMBER>
560

$$$$

* * *

ASSAY TARGET: Histone deacetylase 3 (Homo sapiens)
PROTOCOL NOTES: Inhibition of HDAC3 (unknown origin) using biotinylated histone H3 KAc peptide as substrate pretreated with compound for 1 hrs followed by substrate addition measured after 1 hrs by microplate reader analysis by HTRF assay
pIC50: −log10 of the molar value.

>  <CHEM SMILES>
O=C(Cc1ccc2ncccc2c1)Nc1ccccc1O

>  <pIC50>
5.70

$$$$

* * *

ASSAY TARGET: Histone deacetylase 1 (Homo sapiens)
PROTOCOL NOTES: Inhibition of HDAC1 (unknown origin)
pIC50: −log10 of the molar value.

>  <CHEM SMILES>
CCCNNC(=O)c1ccc(Nc2nccc(N(C)c3ccc4c(C)n(C)nc4c3)n2)cc1

>  <ASSAY TARGET>
Histone deacetylase 1 (Homo sapiens)

>  <pIC50>
6.38

$$$$
